Measured mass density of individual entries
Details: 293.15 K; 101 kPa; Liquid
Quantity Kind: mass density (kg/m3)

Cc1ccccc1C
879.84
Cc1cccc(C)c1
864.31
CN1CCCC1=O
1032.66
Cc1ccc(C)cc1
860.95

* * *

Conditions: 323.15 K; 101 kPa; Liquid
// values below are reported mass density
Quantity Kind: mass density (kg/m3)

Cc1ccccc1C
854.51
Cc1cccc(C)c1
838.09
Cc1ccc(C)cc1
834.76
CN1CCCC1=O
1005.62

* * *

Consider the following compounds and their measured mass density readings.
Settings: 343.15 K; 101 kPa; Liquid
Quantity Kind: mass density (kg/m3)

CN1CCCC1=O
987.39
Cc1ccccc1C
837.23
Cc1ccc(C)cc1
816.87
Cc1cccc(C)c1
820.29
